# Test system: Microdochium nivale isolate 21
# assay.summary: Fungistatic activity, agar growth medium poison technique, isolate 21
# Format: cell-based
# particulars: Microdochium nivale, 1 mM in PSA, fifth day of incubation, 20 °C
reported.endpoint: inhibition at 1000 µM

{"columns": ["smiles.representation", "result"],
 "data": [
  ["O=[N+]([O-])c1c(Cl)cc2c(no[n+]2[O-])c1Nc1ccc(Br)cc1", "> 40%"],
  ["O=[N+]([O-])c1c(Cl)cc2c(no[n+]2[O-])c1Nc1ccc(Cl)cc1", "> 40%"],
  ["CN(Cc1ccccc1)c1c([N+](=O)[O-])c(Cl)cc2c1no[n+]2[O-]", "< 20%"],
  ["CCCCNc1c([N+](=O)[O-])c(Cl)cc2c1no[n+]2[O-]", "10%"]
]}

----------
# Tested on: MCF7
# assay.summary: Cytotoxicity assay (Cytell Cell Viability BioApp), MCF7
# Assay type: cell-based, human
# particulars: selectivity index = IC50 normal cells (Chang liver) / IC50 cancer cells; n.s. = no selectivity
reported.endpoint: SI MCF7

{"columns": ["smiles.representation", "reported.endpoint", "result"],
 "data": [
  ["O=[N+]([O-])c1c(Cl)cc2c(no[n+]2[O-])c1Nc1cccc(O)c1", "SI MCF7", 8.0],
  ["N#Cc1ccc(Nc2c([N+](=O)[O-])c(Cl)cc3c2no[n+]3[O-])cc1", "SI MCF7", ">1.5"],
  ["O=[N+]([O-])c1c(Cl)cc2c(no[n+]2[O-])c1NN1CCOCC1", "SI MCF7", "n.s."],
  ["O=[N+]([O-])c1c(Cl)cc2c(no[n+]2[O-])c1NCCCN1CCOCC1", "SI MCF7", "n.s."]
]}

----------
Entries and their pIC50 values follow.
# Test system: PANC-1
# assay.summary: Cytotoxicity assay (Cytell Cell Viability BioApp), PANC-1
# Type: cell-based, human
# particulars: Homo sapiens, PANC-1; mean ± SD, three experiments
pIC50: −log10 of the molar value.

{"columns": ["molecule", "target.system", "measurement.qualifier", "pIC50"],
 "data": [
  ["COc1cccc2c1C(=O)c1c(O)c3c(c(O)c1C2=O)C[C@@](O)(C(=O)CO)C[C@@H]3O[C@H]1C[C@H](N)[C@H](O)[C@H](C)O1 [Doxorubicin, reference compound]", "PANC-1", "=", 5.48],
  ["O=[N+]([O-])c1c(Cl)cc2c(no[n+]2[O-])c1NN1CCOCC1", "PANC-1", "<", 4.00],
  ["CN(Cc1ccccc1)c1c([N+](=O)[O-])c(Cl)cc2c1no[n+]2[O-]", "PANC-1", "<", 4.00],
  ["N#Cc1ccc(Nc2c([N+](=O)[O-])c(Cl)cc3c2no[n+]3[O-])cc1", "PANC-1", "=", 4.21],
  ["O=[N+]([O-])c1c(Cl)cc2c(no[n+]2[O-])c1NCCCN1CCOCC1", "PANC-1", "=", 4.42],
  ["O=[N+]([O-])c1c(Cl)cc2c(no[n+]2[O-])c1Nc1ccc(Br)cc1", "PANC-1", "=", 4.23],
  ["O=[N+]([O-])c1c(Cl)cc2c(no[n+]2[O-])c1Nc1cccc(O)c1", "PANC-1", "<", 4.00],
  ["CCCCCCNc1c([N+](=O)[O-])c(Cl)cc2c1no[n+]2[O-]", "PANC-1", "=", 4.30],
  ["CCCCNc1c([N+](=O)[O-])c(Cl)cc2c1no[n+]2[O-]", "PANC-1", "<", 4.00]
]}

----------
# System: Chang Liver
# assay.summary: Cytotoxicity assay (Cytell Cell Viability BioApp), normal Chang liver cells
# Assay type: cell-based
# particulars: Homo sapiens, mean ± SD, three experiments, read-out: IC50 Chang Liver (normal cell line)
pIC50: −log10 of the molar value.
Documented pIC50 across a set of compounds

{"columns": ["compound", "measurement.qualifier", "pIC50"],
 "data": [
  ["O=[N+]([O-])c1c(Cl)cc2c(no[n+]2[O-])c1NN1CCOCC1 [Compound 5e]", "=", 4.19],
  ["CN(Cc1ccccc1)c1c([N+](=O)[O-])c(Cl)cc2c1no[n+]2[O-] [Compound 5f]", "<", 4.00],
  ["O=[N+]([O-])c1c(Cl)cc2c(no[n+]2[O-])c1Nc1ccc(F)cc1 [Compound 3a]", "=", 4.03],
  ["CCCCCCNc1c([N+](=O)[O-])c(Cl)cc2c1no[n+]2[O-] [Compound 5b]", "<", 4.00],
  ["O=[N+]([O-])c1c(Cl)cc2c(no[n+]2[O-])c1NC1CCCCC1 [Compound 5d]", "=", 4.17],
  ["O=[N+]([O-])c1c(Cl)cc2c(no[n+]2[O-])c1Nc1ccc(Br)cc1 [Compound 3c]", "=", 4.21],
  ["COc1cccc2c1C(=O)c1c(O)c3c(c(O)c1C2=O)C[C@@](O)(C(=O)CO)C[C@@H]3O[C@H]1C[C@H](N)[C@H](O)[C@H](C)O1 [Doxorubicin, reference compound]", "=", 5.52],
  ["COc1ccccc1Nc1c([N+](=O)[O-])c(Cl)cc2c1no[n+]2[O-] [Compound 3e]", "=", 4.20],
  ["O=[N+]([O-])c1c(Cl)cc2c(no[n+]2[O-])c1Nc1cccc(O)c1 [Compound 3f]", "=", 4.19],
  ["N#Cc1ccc(Nc2c([N+](=O)[O-])c(Cl)cc3c2no[n+]3[O-])cc1 [Compound 3d]", "<", 4.00],
  ["O=[N+]([O-])c1c(Cl)cc2c(no[n+]2[O-])c1Nc1ccc(Cl)cc1 [Compound 3b]", "=", 4.20],
  ["O=[N+]([O-])c1c(Cl)cc2c(no[n+]2[O-])c1NCCCN1CCOCC1 [Compound 5c]", "<", 4.00],
  ["O=[N+]([O-])c1c(Cl)cc2c(no[n+]2[O-])c1N1CCCC1 [Compound 5g]", "<", 4.00],
  ["CCCCNc1c([N+](=O)[O-])c(Cl)cc2c1no[n+]2[O-] [Compound 5a]", "=", 4.00]
]}
